From: PubChem BioAssay (NCI)

Test system: OVCAR-8 ovarian
Experimental details: NCI-60 one-dose screen, 48 h
Conditions: 10 µM unless noted
This is part of a sample that, as a whole, favours compounds with a hit. Of some 83,000 tested, about 20% had one in any assay. Calls of active or inactive are those of the source. How the source made its calls: active means growth percent below 10; inactive means the rest.
Outcomes: True = active, False = inactive

Compound	Category label
Cc1ccc(NC(C(=O)c2ccccc2)c2ccccc2)cc1 (centres undefined)	False
O=C(CCN1CCCC1)c1ccc([N+](=O)[O-])cc1	False
COc1cc(/C=C/c2cc(O)c(C(C)=O)c(O)c2)cc2c1O[C@]1(C)CC[C@@H](O)C(C)(C)[C@H]1C2	False
O=C(/C=C(O)/C=C/c1ccc(SC(F)(F)F)cc1)/C=C/c1ccc(SC(F)(F)F)cc1	False
NC(=S)N1N=C(c2ccccc2)CC1c1cn(-c2ccccc2)nc1-c1ccc(OCc2ccccc2)cc1 (centres undefined)	False
CCCCOc1ccc(/C=N/Nc2cc(C)nc3ccc(Br)cc23)cc1	True
O=[N+]([O-])c1ccc(N=Nc2cc(S(=O)(=O)O)c3cccc(S(=O)(=O)O)c3c2O)cc1	False
COc1ccc2[nH]c(=O)c(CN3CCN(c4nccc(-c5ccc(Cl)cc5)n4)CC3)cc2c1	False
COc1ccc(/C=C/c2nc(Nc3cccc(NC(C)=O)c3)c3ccccc3n2)cc1	False

###

Tested on: NCI/ADR-RES ovarian
Experimental details: NCI-60 one-dose screen, 48 h (100 = growth as untreated, 0 = no growth, -100 = all killed)
Conditions: 10 µM unless noted
The panel holds about 83,000 compounds, 20% with a hit somewhere; the sample as a whole holds those more often.

Compound	Study target	growth [%]
COc1ccc(OC)c(CCn2cncc2-c2c[nH]c3ccccc23)c1	NCI/ADR-RES ovarian	71.1
COC(=O)C(CC=O)C(=O)C(=O)Nc1cccc(C(F)(F)F)c1 (stereo not given)	NCI/ADR-RES ovarian	107
COc1cc2c(c(O)c1Br)C(=O)c1c(O)cc(C[C@H](C)O)cc1[C@H]2[C@H]1c2cc(C[C@H](C)O)cc(O)c2C(=O)c2c1cc(OC)c(Br)c2O	NCI/ADR-RES ovarian	56.3
OCc1cnccc1NCCCCOc1ccc(Oc2ccccc2)cc1	NCI/ADR-RES ovarian	65.8
COc1ccc(C(=O)Nc2cccc(C3CCc4c(cc(OC)c(OC)c4OC)O3)c2)cc1 (stereo not given)	NCI/ADR-RES ovarian	38.5

###

Tested on: SN12C renal
Experimental details: NCI-60 one-dose screen, 48 h
Conditions: 10 µM unless noted
About 83,000 compounds went through this panel and 20% of them were active in at least one assay; those are over-represented in the sample as a whole. Active and inactive are the calls of the source. Rule for the calls: active = growth percent below 10; inactive = the rest.
Outcomes: Y = active, N = inactive

Molecule	Category label
NS(=O)(=O)c1ccc(CCN2C(=O)C=CC2=O)cc1	N
O=Cc1ccc(-c2cn3ccnc3c(-c3ccc4ncn(Cc5ccccc5)c4c3)n2)cc1	N
COc1ccc(C(=O)C2C(C#N)C(C#N)C3c4ccccc4C=CN23)cc1 (stereo not drawn)	N
COc1cc2c(c(O)c1Br)C(=O)c1c(O)cc(C[C@H](C)O)cc1[C@H]2[C@H]1c2cc(C[C@H](C)O)cc(O)c2C(=O)c2c1cc(OC)c(Br)c2O	Y
COc1cc2c(cc1OC)C(=O)/C(=C/c1cc(C)c(O)c(C)c1)S2	N
C=C1C(=O)O[C@H]2[C@H]1CC/C(COC(=O)NCC(C)c1ccc(CC(C)C)cc1)=C\CC[C@@]1(C)O[C@@H]21 (stereo partly drawn)	Y
CC1=C(C(=O)/C=C/c2c[nH]c3ccccc23)C(c2ccccc2)NC(=S)N1 (stereo not drawn)	N
CC1(C)NCCC[C@]2(C)[C@H]3CC(=O)[C@H]4[C@@H]5C[C@](C)(CO)CC[C@]5(C)CC[C@@]4(C)[C@]3(C)CC[C@@H]12	N

###

Test system: SNB-75 CNS
Experimental details: NCI-60 one-dose screen, 48 h (100 = growth as untreated, 0 = no growth, -100 = all killed)
Conditions: 10 µM unless noted
About 83,000 compounds went through this panel and 20% of them were active in at least one assay; those are over-represented in the sample as a whole. Activity calls are given as the source filed them. The calls were made as follows: active = growth percent below 10; inactive = the rest.
Catalogue of molecules with associated growth
Measured parameter: growth

1) COc1ccc(Cc2cnc(NC(=O)c3ccc4c(c3)OCCO4)s2)cc1 17.9% (inactive)
2) COc1ccccc1/C=C1\Oc2cc(OCCN3CCCC3)ccc2C1=O 90.5% (inactive)
3) COCc1cnccc1NC1CCCCCC1 98.1% (inactive)
4) C[C@H](c1nc2ccc(N)cc2[nH]1)[C@H]1CC[C@H]2[C@@H]3CCC4=CC(=O)CC[C@]4(C)[C@H]3CC[C@]12C 39.6% (inactive)
5) Cc1c2cc[nH]c(=O)c2c(C)c2c1[nH]c1cc(OCCN3CCN(C)CC3)ccc12 7.53% (active)
6) O=C(Cc1ccc(/C=C/C(=O)c2ncc[nH]2)cc1)Nc1ccc(Cl)cc1 25.3% (inactive)

###

Test system: CCRF-CEM leukemia
Experimental details: NCI-60 one-dose screen, 48 h (100 = growth as untreated, 0 = no growth, -100 = all killed)
Conditions: 10 µM unless noted
About 83,000 compounds went through this panel and 20% of them were active in at least one assay; those are over-represented in the sample as a whole. Calls of active or inactive are those of the source. The calls were made as follows: active = growth percent below 10; inactive = the rest.

Compound	Study target	growth
COc1cc2c(=O)n(CCN)c3c4cc5c(cc4ccc3c2cc1OC)OCO5	CCRF-CEM leukemia	-19% (active)
Cc1nn(-c2ccccc2)c(Cl)c1/C=C/C(=O)c1ccc(F)cc1	CCRF-CEM leukemia	4.52% (active)
CC1(C)CC(=O)C2=C(C1)N(c1ccc(F)cc1F)C(N)=C(C#N)C2c1cc(Br)ccc1F (stereo not given)	CCRF-CEM leukemia	91.8% (inactive)
O=C(/C=C/c1c(-c2ccc(Cl)cc2)nn(-c2ccccc2)c1C(F)(F)F)c1ccc(Cl)cc1	CCRF-CEM leukemia	85.6% (inactive)
Cc1ccc(-c2csc(NC(=O)CSc3nc(-c4ccccc4)cc(=O)[nH]3)n2)cc1	CCRF-CEM leukemia	88.8% (inactive)
C#Cc1cccc(NC(=O)c2cccc(NC(=O)CCl)c2)c1	CCRF-CEM leukemia	8.26% [8.25 µM] (active)
O=C(Cn1c[n+](CC(=O)c2ccc([N+](=O)[O-])cc2)c2ccccc21)Nc1cccc2cccnc12	CCRF-CEM leukemia	89.4% (inactive)
N#CC1C(C#N)C(C(=O)c2ccc(Br)cc2)N2c3ccccc3C=CC12 (stereo not given)	CCRF-CEM leukemia	84.9% (inactive)
COc1cc(C2=NN(C(C)=O)C(c3cc(OC)c(OC)c(OC)c3)C2)ccc1O (stereo not given)	CCRF-CEM leukemia	-16.5% (active)
Cc1c(C(=O)NCCC(=O)NO)sc2ncnc(Nc3ccc(F)c(Cl)c3)c12	CCRF-CEM leukemia	105% (inactive)

###

System: NCI/ADR-RES ovarian
Experimental details: NCI-60 one-dose screen, 48 h (100 = growth as untreated, 0 = no growth, -100 = all killed)
Conditions: 10 µM unless noted
The panel holds about 83,000 compounds, 20% with a hit somewhere; the sample as a whole holds those more often.

Compound	growth (%)
O=[N+]([O-])CC(c1ccccc1F)c1c[nH]c2ccccc12 (centres undefined)	48.2
COc1cc2c3c(c4c5ccccc5[nH]c4c2c(OC)c1OC)C(=O)N(CCN1CCOCC1)C3=O	45.8
CCOC(=O)Oc1c(OC)cc(C(=O)c2ccc(OC)c(OC(=O)CCl)c2OC)cc1OC	-5.85
O=S(=O)(NCCNc1nccc(-c2c(-c3cccc(O)c3)nc3occn23)n1)c1ccc(Cl)cc1	109

###

Tested on: NCI-H460 lung
Experimental details: NCI-60 one-dose screen, 48 h (100 = growth as untreated, 0 = no growth, -100 = all killed)
Conditions: 10 µM unless noted
This is part of a sample that, as a whole, favours compounds with a hit. Of some 83,000 tested, about 20% had one in any assay.
Measured parameter: growth (%)

1) COc1ccc(C/C(C)=C(/c2ccc(OCCCN(C)C)cc2)c2ccc(OC(C)=O)cc2)cc1 73.1
2) CCN1Cc2nc3sc(C)c(C)c3c(=O)n2C=C1C 115
3) O=C(Cn1c[n+](CC(=O)c2ccc([N+](=O)[O-])cc2)c2ccccc21)Nc1cccc2cccnc12 77.7
4) O=C1Nc2cc(-c3ccc(NS(=O)(=O)c4ccccc4)cc3)ccc2/C1=C/c1ccc[nH]1 11.4
5) COc1ccc(C(=O)c2cc(OC)c(OC)c(OC)c2)cc1O 2.85
6) COc1ccc(-c2cnc3c(-c4cccc5ncccc45)cnn3c2)cc1 33.9
7) COc1cc(-c2csc(NC(=O)c3cc(F)cc(C(F)(F)F)c3)n2)cc(OC)c1OC 19.5
8) COCCCN1CC(O)=C(c2nc(-c3ccc(C)cc3)cs2)C1=N 153
9) C=C1C(=O)O[C@H]2[C@H]1CC/C(COC(=O)NCc1c[nH]c3ccc(Br)cc13)=C\CC[C@@]1(C)O[C@@H]21 24.1
